Listing of entries alongside the reported kon.
molecular target: T1, Human C5 (human, UniProt P01031 19-1676); test: SPR, mAb captured by anti-hFc, 37C
T1 construct: The natural protein has a beta and an alpha chain; also called complement factor 5; complement component 5
value-kind: kon

>>> readout_value("H4H12166P8 (antibody, human IgG4, V domains shown, human IgG4 Fc with S108P hinge mutation) VH: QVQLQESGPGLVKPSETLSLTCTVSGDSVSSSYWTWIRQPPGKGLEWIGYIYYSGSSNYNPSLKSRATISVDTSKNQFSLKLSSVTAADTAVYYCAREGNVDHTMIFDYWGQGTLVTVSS VL: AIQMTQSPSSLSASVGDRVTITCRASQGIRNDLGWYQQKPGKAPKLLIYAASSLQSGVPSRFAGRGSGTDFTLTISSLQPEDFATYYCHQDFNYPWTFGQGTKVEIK")
"675000 M⁻¹ s⁻¹"
>>> readout_value("H4H12166P5 (antibody, human IgG4, V domains shown, human IgG4 Fc with S108P hinge mutation) VH: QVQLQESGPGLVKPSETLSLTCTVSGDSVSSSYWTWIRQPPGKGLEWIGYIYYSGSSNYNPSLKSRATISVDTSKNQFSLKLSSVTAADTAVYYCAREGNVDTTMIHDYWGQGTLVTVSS VL: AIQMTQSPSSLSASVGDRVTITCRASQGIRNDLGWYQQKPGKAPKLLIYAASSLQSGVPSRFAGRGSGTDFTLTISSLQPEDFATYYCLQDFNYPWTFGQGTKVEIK")
"440000 M⁻¹ s⁻¹"
>>> readout_value("H4H12166P7 (antibody, human IgG4, V domains shown, human IgG4 Fc with S108P hinge mutation) VH: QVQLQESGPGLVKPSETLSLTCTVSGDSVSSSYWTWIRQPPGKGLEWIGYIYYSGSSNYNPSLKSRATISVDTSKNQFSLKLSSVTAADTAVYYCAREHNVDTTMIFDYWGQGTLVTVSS VL: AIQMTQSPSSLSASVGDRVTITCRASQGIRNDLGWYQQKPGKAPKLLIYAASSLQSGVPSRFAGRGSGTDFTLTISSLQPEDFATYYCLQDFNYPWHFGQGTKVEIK")
"349000 M⁻¹ s⁻¹"
>>> readout_value("H4H11686N (antibody, human IgG4, V domains shown, also called H2M11686N) VH: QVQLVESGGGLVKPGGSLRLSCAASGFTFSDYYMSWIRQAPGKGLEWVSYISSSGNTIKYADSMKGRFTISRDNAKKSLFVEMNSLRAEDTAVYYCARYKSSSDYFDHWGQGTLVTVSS VL: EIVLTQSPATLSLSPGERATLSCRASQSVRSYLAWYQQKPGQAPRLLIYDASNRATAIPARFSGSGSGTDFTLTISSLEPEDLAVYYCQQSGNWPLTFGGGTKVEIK")
"333000 M⁻¹ s⁻¹"
>>> readout_value("H4H12166P4 (antibody, human IgG4, V domains shown, human IgG4 Fc with S108P hinge mutation) VH: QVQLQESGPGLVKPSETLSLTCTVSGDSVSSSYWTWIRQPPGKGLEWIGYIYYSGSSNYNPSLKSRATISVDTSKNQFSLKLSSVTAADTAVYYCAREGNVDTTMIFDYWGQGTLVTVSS VL: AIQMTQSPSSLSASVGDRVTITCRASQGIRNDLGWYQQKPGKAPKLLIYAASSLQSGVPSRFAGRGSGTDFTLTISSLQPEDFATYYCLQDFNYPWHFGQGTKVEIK")
"505000 M⁻¹ s⁻¹"
